target: N-type calcium channel (NTCC) (Homo sapiens); test: FLIPR calcium mobilization assay for N-type calcium channel (differentiated IMR32 cells); assay type: cell-based; design: endogenous in cells; host or cells: IMR32 cells (ATCC), differentiated 8 days with dibutyryl cAMP and bromodeoxyuridine; settings: calcium mobilization in vitro assay; N-type calcium channel block
Assay metric: log10 of IC50 (log10 of the value in µM)
Log scale reminder: IC50 in µM, then log10 taken.

[in] Using the record for O=C1OC2(CCN(CCCN(c3ccc(F)cc3)c3ccc(F)cc3)CC2)c2ccccc21 , report its log10 of IC50.
[out] -0.64

[in] Consider the molecule shown here: O=C(N1CCc2cc(S(=O)(=O)N3CCC4(C=Cc5ncccc54)CC3)ccc2C1)C(F)(F)F What is its recorded log10 of IC50?
[out] 0.75

[in] What value of log10 of IC50 has been reported for the following molecule? O=C1Nc2ccccc2C12CCN(CCCC(c1ccc(F)cc1)c1ccc(F)cc1)CC2
[out] 0.02

[in] Query: log10 of IC50; subject: O=C1OC2(CCN(CC(=O)N(c3ccc(F)cc3)c3ccc(F)cc3)CC2)c2ccccc21
[out] 0.69

[in] Look at this molecule and give its reported log10 of IC50. O=C1c2ccccc2C2(CCN(CCCC(c3ccc(F)cc3)c3ccc(F)cc3)CC2)N1Cc1ccccc1
[out] -0.26

[in] I have this molecule here, O=C1OC2(CCN(C(=O)CC(=O)N(c3ccc(F)cc3)c3ccc(F)cc3)CC2)c2ccccc21 , and I need its recorded log10 of IC50.
[out] 0.76

[in] If you can, please state the reported log10 of IC50 value of O=C(CC(c1ccccc1)c1ccccc1)N1CCC2(C=Cc3ncccc32)CC1 .
[out] 0.55

====

biological target: L-type calcium channel (LTCC) (Rattus norvegicus, UniProt P22002); construct: The 6.5 kb cDNA encoding the L-type calcium channel α1c subunit was cloned by PCR amplification from rat heart cDNA; test: FLIPR calcium mobilization assay for L-type calcium channel (HEK293 cells expressing recombinant rat LTCC subunits, or alternatively differentiated A7r5 cells); conditions: calcium mobilization in vitro assay; L-type calcium channel block
Sequence (P22002 whole entry): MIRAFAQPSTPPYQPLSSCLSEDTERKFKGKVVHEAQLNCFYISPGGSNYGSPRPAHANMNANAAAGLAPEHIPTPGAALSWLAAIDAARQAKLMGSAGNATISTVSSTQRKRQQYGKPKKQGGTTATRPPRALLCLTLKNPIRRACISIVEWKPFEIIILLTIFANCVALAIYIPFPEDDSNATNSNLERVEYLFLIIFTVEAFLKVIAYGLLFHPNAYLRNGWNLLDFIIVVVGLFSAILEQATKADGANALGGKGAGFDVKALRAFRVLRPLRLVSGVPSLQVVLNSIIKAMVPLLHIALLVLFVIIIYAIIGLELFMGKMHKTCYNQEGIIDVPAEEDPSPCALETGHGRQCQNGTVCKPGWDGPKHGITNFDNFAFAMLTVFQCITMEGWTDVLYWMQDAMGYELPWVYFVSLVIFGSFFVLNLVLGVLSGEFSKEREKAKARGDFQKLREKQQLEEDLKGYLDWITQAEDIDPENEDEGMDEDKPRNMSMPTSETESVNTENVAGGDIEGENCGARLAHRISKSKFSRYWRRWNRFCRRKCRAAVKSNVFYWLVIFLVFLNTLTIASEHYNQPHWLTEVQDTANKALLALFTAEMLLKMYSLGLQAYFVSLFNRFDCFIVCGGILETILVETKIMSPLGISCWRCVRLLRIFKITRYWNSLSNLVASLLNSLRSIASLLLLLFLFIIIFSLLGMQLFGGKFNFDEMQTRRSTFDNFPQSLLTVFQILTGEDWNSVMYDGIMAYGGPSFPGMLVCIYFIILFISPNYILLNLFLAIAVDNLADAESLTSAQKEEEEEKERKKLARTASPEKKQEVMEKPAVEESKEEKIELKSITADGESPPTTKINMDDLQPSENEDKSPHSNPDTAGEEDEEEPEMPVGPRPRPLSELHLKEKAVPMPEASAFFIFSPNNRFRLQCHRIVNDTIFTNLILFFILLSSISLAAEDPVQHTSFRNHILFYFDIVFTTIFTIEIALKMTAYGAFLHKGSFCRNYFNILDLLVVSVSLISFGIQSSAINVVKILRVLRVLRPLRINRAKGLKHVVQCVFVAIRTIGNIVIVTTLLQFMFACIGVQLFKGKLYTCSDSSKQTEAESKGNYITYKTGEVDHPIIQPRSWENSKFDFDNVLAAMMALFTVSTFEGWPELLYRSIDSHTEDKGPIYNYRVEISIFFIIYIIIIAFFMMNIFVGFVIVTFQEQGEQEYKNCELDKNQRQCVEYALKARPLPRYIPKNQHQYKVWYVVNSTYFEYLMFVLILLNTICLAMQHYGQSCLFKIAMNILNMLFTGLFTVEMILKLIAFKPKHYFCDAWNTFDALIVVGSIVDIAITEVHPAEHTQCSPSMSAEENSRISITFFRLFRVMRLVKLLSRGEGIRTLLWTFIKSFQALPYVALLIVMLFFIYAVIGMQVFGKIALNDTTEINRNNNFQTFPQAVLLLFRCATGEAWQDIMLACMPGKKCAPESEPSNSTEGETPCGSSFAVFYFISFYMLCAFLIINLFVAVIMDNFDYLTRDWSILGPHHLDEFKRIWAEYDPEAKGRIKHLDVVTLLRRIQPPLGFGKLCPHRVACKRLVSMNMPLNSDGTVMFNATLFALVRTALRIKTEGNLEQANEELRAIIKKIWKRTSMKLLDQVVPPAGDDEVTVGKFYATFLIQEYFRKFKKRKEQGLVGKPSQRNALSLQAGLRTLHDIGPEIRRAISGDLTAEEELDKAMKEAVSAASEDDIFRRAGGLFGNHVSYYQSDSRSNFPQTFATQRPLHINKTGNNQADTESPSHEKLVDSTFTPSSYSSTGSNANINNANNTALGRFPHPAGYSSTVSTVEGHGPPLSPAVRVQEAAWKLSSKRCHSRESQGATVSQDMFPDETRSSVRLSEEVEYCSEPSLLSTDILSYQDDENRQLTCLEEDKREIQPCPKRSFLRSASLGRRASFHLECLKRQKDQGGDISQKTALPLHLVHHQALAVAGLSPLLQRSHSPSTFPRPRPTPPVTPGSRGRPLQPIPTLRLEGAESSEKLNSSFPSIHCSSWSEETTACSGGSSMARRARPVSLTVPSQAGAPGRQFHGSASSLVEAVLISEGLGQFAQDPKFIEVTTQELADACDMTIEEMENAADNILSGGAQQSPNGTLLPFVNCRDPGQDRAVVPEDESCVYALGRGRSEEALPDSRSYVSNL
Sequence (P54290 25-944 partner limits assumed): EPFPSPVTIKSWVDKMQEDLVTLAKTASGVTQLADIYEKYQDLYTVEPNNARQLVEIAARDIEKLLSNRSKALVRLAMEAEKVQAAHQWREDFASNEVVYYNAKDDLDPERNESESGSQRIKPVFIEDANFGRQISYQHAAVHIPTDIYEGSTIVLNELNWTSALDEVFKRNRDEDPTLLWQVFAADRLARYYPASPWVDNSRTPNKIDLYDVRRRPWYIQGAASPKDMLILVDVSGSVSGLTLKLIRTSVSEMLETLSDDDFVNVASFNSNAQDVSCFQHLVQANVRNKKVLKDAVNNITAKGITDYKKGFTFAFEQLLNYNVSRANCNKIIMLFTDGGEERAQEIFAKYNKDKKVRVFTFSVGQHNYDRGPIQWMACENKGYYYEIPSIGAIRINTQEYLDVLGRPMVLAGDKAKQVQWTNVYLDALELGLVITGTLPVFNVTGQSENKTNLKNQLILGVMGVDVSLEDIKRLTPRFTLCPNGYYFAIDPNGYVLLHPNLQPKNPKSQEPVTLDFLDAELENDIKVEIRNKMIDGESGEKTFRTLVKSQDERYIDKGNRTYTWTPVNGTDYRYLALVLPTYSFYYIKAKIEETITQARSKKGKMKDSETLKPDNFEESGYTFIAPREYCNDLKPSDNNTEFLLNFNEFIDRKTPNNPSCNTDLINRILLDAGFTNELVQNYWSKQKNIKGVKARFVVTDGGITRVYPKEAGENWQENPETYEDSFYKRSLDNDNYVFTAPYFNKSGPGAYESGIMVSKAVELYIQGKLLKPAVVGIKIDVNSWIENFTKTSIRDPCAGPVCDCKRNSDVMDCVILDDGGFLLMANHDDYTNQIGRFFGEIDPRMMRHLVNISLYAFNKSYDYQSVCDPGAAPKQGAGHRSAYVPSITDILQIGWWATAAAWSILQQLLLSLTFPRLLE
Sequence (P54290 945-1091 partner limits assumed): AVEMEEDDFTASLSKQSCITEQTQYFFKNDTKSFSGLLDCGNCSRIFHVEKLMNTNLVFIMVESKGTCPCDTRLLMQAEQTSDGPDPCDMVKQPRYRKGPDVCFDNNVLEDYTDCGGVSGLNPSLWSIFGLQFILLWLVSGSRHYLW
Sequence (P54283 whole entry partner): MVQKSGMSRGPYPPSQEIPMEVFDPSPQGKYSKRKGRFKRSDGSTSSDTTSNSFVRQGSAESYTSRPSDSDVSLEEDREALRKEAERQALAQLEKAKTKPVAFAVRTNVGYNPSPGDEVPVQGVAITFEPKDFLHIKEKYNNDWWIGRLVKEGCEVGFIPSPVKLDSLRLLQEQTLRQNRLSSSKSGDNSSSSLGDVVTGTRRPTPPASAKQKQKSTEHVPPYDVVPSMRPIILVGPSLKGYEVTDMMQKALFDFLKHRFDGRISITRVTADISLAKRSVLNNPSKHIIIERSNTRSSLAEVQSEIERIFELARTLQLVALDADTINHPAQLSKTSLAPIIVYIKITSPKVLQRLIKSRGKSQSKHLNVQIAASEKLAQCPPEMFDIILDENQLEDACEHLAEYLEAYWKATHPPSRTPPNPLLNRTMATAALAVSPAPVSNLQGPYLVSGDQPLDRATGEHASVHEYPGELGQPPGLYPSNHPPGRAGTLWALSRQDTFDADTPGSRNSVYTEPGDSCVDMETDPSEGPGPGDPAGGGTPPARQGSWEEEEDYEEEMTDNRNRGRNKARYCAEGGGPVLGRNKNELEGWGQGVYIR
Assay metric: pIC50
Please express pIC50 as -log10 of the molar concentration.

[in] Sample O=C1Nc2ccccc2C12CCN(CCCC(c1ccc(F)cc1)c1ccc(F)cc1)CC2 [Compound 60] — what was its pIC50?
[out] 5.42

[in] Request the reported pIC50 associated with COc1ccc(C(=O)N2CCC3(C=Cc4ccccc43)CC2)cc1C(F)(F)F
[out] 5.24

[in] GET /values?readout=pIC50&item= O=C1OC2(CCN(C(=O)CCC(c3ccc(F)cc3)c3ccc(F)cc3)CC2)c2ccccc21 [Compound 14]
[out] 6.51

[in] I'd like to know its pIC50. The compound in question is O=C1OC2(CCN(CCCC(c3ccc(F)cc3)c3ccc(F)cc3)CC2)c2ccccc21 [Compound 12]
[out] 5.40

[in] Which pIC50 is reported for this compound? O=C1c2ccccc2C2(CCN(CCCC(c3ccc(F)cc3)c3ccc(F)cc3)CC2)N1Cc1ccccc1 [Compound 51]
[out] 5.19

[in] Data request, read-out pIC50, for C1=CC2(CCN(CCC=C3c4ccccc4CCc4ccccc43)CC2)c2cccnc21
[out] 5.42

[in] Quick check: pIC50 of COc1ccc(CN2CCC3(C=Cc4ccccc43)CC2)cc1 [Compound 37] ?
[out] 5.26

[in] What does the data say about its pIC50? Entry: Fc1ccc(C(CCCN2CCC3(CC2)OCc2ccccc23)c2ccc(F)cc2)cc1 [Compound 42]
[out] 5.59
